# target-of-assay: JAK2 (Homo sapiens, UniProt O60674)
# Construct: host or cells: baculovirus expression system
# Sequence (O60674 whole entry): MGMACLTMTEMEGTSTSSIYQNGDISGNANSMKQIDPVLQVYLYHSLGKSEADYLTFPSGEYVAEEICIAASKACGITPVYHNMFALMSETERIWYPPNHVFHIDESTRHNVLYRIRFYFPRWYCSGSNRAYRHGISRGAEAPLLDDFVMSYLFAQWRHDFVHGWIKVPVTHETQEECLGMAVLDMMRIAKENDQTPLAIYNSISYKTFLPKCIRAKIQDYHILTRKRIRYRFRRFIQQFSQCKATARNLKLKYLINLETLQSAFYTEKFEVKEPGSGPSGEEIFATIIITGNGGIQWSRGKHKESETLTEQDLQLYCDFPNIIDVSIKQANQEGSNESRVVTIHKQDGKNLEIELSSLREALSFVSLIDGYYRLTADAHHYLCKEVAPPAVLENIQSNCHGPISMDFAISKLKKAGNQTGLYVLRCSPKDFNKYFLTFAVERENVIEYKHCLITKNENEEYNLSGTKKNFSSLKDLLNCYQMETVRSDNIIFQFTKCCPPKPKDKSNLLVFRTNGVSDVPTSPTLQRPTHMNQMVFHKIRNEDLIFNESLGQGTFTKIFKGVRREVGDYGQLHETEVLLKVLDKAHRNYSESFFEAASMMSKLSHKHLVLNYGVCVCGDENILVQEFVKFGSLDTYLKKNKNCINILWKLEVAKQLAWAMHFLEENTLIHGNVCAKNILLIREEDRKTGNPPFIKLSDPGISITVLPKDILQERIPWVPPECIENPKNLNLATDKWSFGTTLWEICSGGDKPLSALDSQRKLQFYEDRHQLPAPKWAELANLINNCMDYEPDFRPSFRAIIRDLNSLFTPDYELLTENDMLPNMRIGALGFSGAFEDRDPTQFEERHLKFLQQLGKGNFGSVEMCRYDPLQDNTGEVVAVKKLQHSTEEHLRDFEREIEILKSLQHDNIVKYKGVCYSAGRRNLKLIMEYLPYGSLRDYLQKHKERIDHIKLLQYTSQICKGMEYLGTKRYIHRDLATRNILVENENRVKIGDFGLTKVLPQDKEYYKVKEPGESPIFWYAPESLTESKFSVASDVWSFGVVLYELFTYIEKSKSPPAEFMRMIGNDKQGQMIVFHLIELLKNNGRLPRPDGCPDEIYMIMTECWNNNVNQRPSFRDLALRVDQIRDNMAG
# assay-name: Recombinant Human JAK2 Kinase Assay (TRF)
# Format: biochemical
# cond: JAK2 kinase inhibition, 0.2 μM ATP; read-out: JAK2 Potency
quantity: IC50

// sample "CC(C)(C)NS(=O)(=O)c1cccc(-c2ccc3cnc(Nc4ccc5c(c4)ncn5CCN4CCOCC4)nn23)c1" , its IC50 was < 100 nM

---

# target-of-assay: JAK2 (Homo sapiens)
# Construct: host or cells: baculovirus expression system
# assay-name: Recombinant Human JAK2 Kinase Assay (TRF)
# Format: biochemical
# cond: JAK2 kinase inhibition, 0.2 μM ATP; read-out: JAK2 Potency
pIC50: −log10 of the molar value.
pIC50 values by entry

# annotated cases, reported pIC50 shown
CN1CCC(c2ccc(Nc3ncc4ccc(-c5cccc(CCC#N)c5)n4n3)cc2)CC1    > 7.00
COc1cc(C2CCN(C(=O)OC(C)(C)C)CC2)ccc1Nc1ncc2ccc(-c3ccccc3N(C)S(C)(=O)=O)n2n1    < 5.00
CN(c1ccccc1-c1ccc2cnc(Nc3cncc(C(N)=O)c3)nn12)S(C)(=O)=O    > 7.00

Data point: "CN(c1ccccc1-c1ccc2cnc(Nc3ccc4nc(CO)[nH]c4c3)nn12)S(C)(=O)=O" ; pIC50 = > 7.00

The recorded pIC50 for "C1=C(c2ccc3cnc(Nc4ccc(N5CCOCC5)cc4)nn23)CCSC1" is > 7.00

# pIC50 (compound: "NC(=O)CN1CCC(c2ccc(Nc3ncc4ccc(-c5cccc(S(=O)(=O)N6CCCC6)c5)n4n3)cc2)CC1" ) is > 7.00

Form: compound = "COc1cc(C2CCN(CC(N)=O)CC2)ccc1Nc1ncc2c(O)cc(-c3ccccc3N(C)S(C)(=O)=O)n2n1" ; pIC50 = 5.00 to 6.00

---

# target-of-assay: JAK2 (Homo sapiens)
# Construct: host or cells: baculovirus expression system
# assay-name: Recombinant Human JAK2 Kinase Assay (TRF)
# Format: biochemical
# cond: JAK2 kinase inhibition, 0.2 μM ATP; read-out: JAK2 Potency
# Description: Compounds were tested for their ability to inhibit the kinase activity of baculovirus-expressed JAK2 using the TRF detection system. […] The plates were coated first with 100 μL/well of 10 μg/mL Neutravidin (Pierce #31000, Rockford, Ill.) in TBS at 37° C. for 2 hours, followed by 100 μL/well of 1 μg/mL 15-mer peptide substrate (biotinyl-amino-hexanoyl-[…]-amide, Infinity Biotech Research and Resource, Aston, Pa.) at 37° C. for another hour. […]
pIC50: −log10 of the molar value.
# reported pIC50; entries follow

Please review the following examples before continuing.
COc1cc(N2CCC(N3CC[C@@H](O)C3)CC2)ccc1Nc1ncc2ccc(-c3ccccc3N(C)S(C)(=O)=O)n2n1    > 7.00
COc1cc(C2CCN(C[C@H](Oc3ncc4ccc(-c5ccccc5N(C)S(C)(=O)=O)n4n3)C(F)(F)F)CC2)ccc1N    < 5.00
CN(c1ccccc1-c1ccc2cnc(Nc3ccc4cnn(C)c4c3)nn12)S(C)(=O)=O    > 7.00
CN1CCN(c2ccc(Nc3ncc4ccc(-c5cccc(C(=O)OC(C)(C)C)c5)n4n3)cc2)CC1    > 7.00
CS(=O)(=O)c1cccc(-c2ccc3cnc(Nc4ccc(C5CCNCC5O)cc4)nn23)c1 (stereo not drawn)    > 7.00
COc1ccccc1-c1ccc2cnc(Nc3ccc(C4CCN(C)CC4)c(C)c3)nn12    > 7.00
COc1cc(C2CCN(C3COC3)CC2)ccc1Nc1ncc2ccc(-c3ccccc3N(C)S(C)(=O)=O)n2n1    5.00 to 6.00
COc1cc(N2CCN(C[C@H](C)O)CC2)ccc1Nc1ncc2ccc(-c3c(OC)cccc3OC)n2n1    5.00 to 6.00

For "COc1cc2c(cc1Nc1ncc3ccc(-c4cccc(S(=O)(=O)NC(C)(C)C)c4)n3n1)CCN(C[C@H](C)O)CC2" the molecule record lists pIC50 as 6.00 to 7.00

Per the record, "Cn1ncc2ccc(Nc3ncc4ccc(-c5cccc(S(=O)(=O)CC6CC6)c5)n4n3)cc21" has pIC50 of > 7.00

Measured pIC50 of "CC(C)(C)NS(=O)(=O)c1cccc(-c2ccc3cnc(Nc4ccc(N5CCC(N6CCNC(=O)C6)CC5)cc4)nn23)c1" : > 7.00

Entry under test: "COc1ccc(-c2ccc3cnc(Nc4ccc(Cl)c(CN5CCOCC5)c4)nn23)cn1" . Its pIC50 was > 7.00

The molecule listed as "CC(=O)Nc1cccc(Nc2ncc3ccc(-c4cccc(NC(=O)C(C)(C)C)c4)n3n2)c1" has a reported pIC50 of > 7.00

Documented pIC50 of "COc1ccc(-c2ccc3cnc(Nc4ccc(C5CCN(CC(N)=O)CC5)cc4)nn23)c(OC)n1" : > 7.00

Lab note: "CN1CCN(c2ccc(Nc3ncc4ccc(-c5ccccc5OCC(=O)OC(C)(C)C)n4n3)cc2)CC1" gave pIC50 of > 7.00
